- Test system: NCI-H460
- ASSAY DETAILS: Cytotoxicity against human NCI-H460 cells by MTT assay
- Format: functional
READOUT LABEL: GI50

Answered examples (5):
Q: Hello, I am looking for reported GI50 with NCI-H460 for O=C(/C=C/c1ccc(CNC23CC4CC(C2)CC(c2ccccc2)(C4)C3)cc1)NO . Could you help?
Ans: 5000 nM

Q: Hello, I am looking for reported GI50 with NCI-H460 for CC(NCc1ccc(/C=C/C(=O)NO)cc1)C12CC3CC(CC1C3)C2 (stereo unspecified) . Could you help?
Ans: 30 nM

Q: Hello, I am looking for reported GI50 with NCI-H460 for O=C(/C=C/c1ccc(CNC23CC4CC(CC(O)(C4)C2)C3)cc1)NO . Could you help?
Ans: 8000 nM

Q: Hello, I am looking for reported GI50 with NCI-H460 for O=C(/C=C/c1ccc(CNC(=O)C23CC4CC(CC(C4)C2)C3)cc1)NO . Could you help?
Ans: 100 nM

Q: Hello, I am looking for reported GI50 with NCI-H460 for O=C(/C=C/c1ccc(CNC(=O)CC2C3CC4CC(C3)CC2C4)cc1)NO (stereo unspecified) . Could you help?
Ans: 400 nM

Query compound follows.
Q: Hello, I am looking for reported GI50 with NCI-H460 for O=C(/C=C/c1ccc(CNC23CC4CC(CC(CO)(C4)C2)C3)cc1)NO . Could you help?
Ans: 9500 nM

* * *

- Tested on: HCT-116
- ASSAY DETAILS: Cytotoxicity against human HCT116 cells by MTT assay
- Type: functional
GI50: recorded values

Answered examples (5):
Q: What value of GI50 has been recorded for this entry: CC(NCc1ccc(/C=C/C(=O)NO)cc1)C12CC3CC(CC1C3)C2 (stereo unspecified)
Ans: 30 nM

Q: What value of GI50 has been recorded for this entry: O=C(/C=C/c1ccc(CNCC23CC4CC(CC(F)(C4)C2)C3)cc1)NO
Ans: 30 nM

Q: What value of GI50 has been recorded for this entry: O=C(/C=C/c1ccc(CNC23CC4CC(CC(C4)C2)C3)cc1)NO
Ans: 500 nM

Q: What value of GI50 has been recorded for this entry: O=C(CCCCCCC(=O)Nc1ccccc1)NO
Ans: 1000 nM

Q: What value of GI50 has been recorded for this entry: O=C(/C=C/c1ccc(CNCCC23CC4CC(CC(C4)C2)C3)cc1)NO
Ans: 450 nM

Query compound follows.
Q: What value of GI50 has been recorded for this entry: O=C(/C=C/c1ccc(CNC(=O)CC2C3CC4CC(C3)CC2C4)cc1)NO (stereo unspecified)
Ans: 500 nM

* * *

log10 GI50: recorded values
- Test system: HCT-116
- ASSAY DETAILS: Cytotoxicity against human HCT116 cells by MTT assay
- Type: functional
Kindly note that the scale is log10 and the underlying GI50 is in nM.

Answered examples (4):
Q: What value of log10 GI50 has been recorded for this entry: COC12CC3CC(CC(NCc4ccc(/C=C/C(=O)NO)cc4)(C3)C1)C2
Ans: 3.20

Q: What value of log10 GI50 has been recorded for this entry: O=C(/C=C/c1ccc(CNC2C3CC4CC(C3)CC2C4)cc1)NO (stereo not given)
Ans: 1.90

Q: What value of log10 GI50 has been recorded for this entry: O=C(/C=C/c1ccc(CNC23CC4CC(C2)CC(c2ccccc2)(C4)C3)cc1)NO
Ans: 3.34

Q: What value of log10 GI50 has been recorded for this entry: O=C(/C=C/c1ccc(CNC23CC4CC(CC(Cl)(C4)C2)C3)cc1)NO
Ans: 4.04

Query compound follows.
Q: What value of log10 GI50 has been recorded for this entry: O=C(/C=C/c1ccc(CNC23CC4CC(CC(O)(C4)C2)C3)cc1)NO
Ans: 3.48

FYI, the data here is from ChEMBL document CHEMBL2375347.
